compounds and their reported GI50
Tested on: SW-620
Experiment: NCI tumour cell line growth inhibition, 48 h
Active and inactive are the calls of the source. No stated cut-off is given here; in the data, active = GI50 up to about 1.1 µM and inactive = higher. Residues, ends and D or L forms follow the SMILES beside them.
Measurement kind: GI50

>>> value_measured("COC(=O)c1sc2ncc3c(c2c1N)CCCCCC3")
"> 100 µM (inactive)"
>>> value_measured("Oc1cccc2cc(Cl)cnc12")
"7.18 µM (inactive)"
>>> value_measured("COc1cccc(Nc2n[nH]c(NS(=O)(=O)c3cc(C)c(Cl)cc3S)n2)c1")
"> 100 µM (inactive)"
>>> value_measured("CN1N=C2c3ccccc3OC(c3ccccc3)[C@H]2C1c1ccccc1 (stereo partly drawn)")
"> 100 µM (inactive)"
>>> value_measured("CCSCC(=O)N1CCc2c([nH]c3ccccc23)C1=O")
"> 100 µM (inactive)"
>>> value_measured("CCN(CC)CCNC(=O)c1cc2cc(NC(=O)c3cc4cc([N+](=O)[O-])ccc4[nH]3)ccc2[nH]1")
"6.11 µM (inactive)"
>>> value_measured("CCC[C@@H](O)C[C@@H]1CCC[C@H](C[C@@H](O)CC)N1C")
"> 100 µM (inactive)"
>>> value_measured("CCOC(=O)c1cc2cc(Cc3ccc4[nH]c(C(=O)OCC)cc4c3)ccc2[nH]1")
"63.5 µM (inactive)"
>>> value_measured("COc1ccc(N2C(=O)C3c4[nH]c5ccc(OCc6ccccc6)cc5c4C4CCC(C(C)C)CC4C3C2=O)cc1 (stereo not drawn)")
"> 100 µM (inactive)"
>>> value_measured("COC1CC(OC)C2OC(c3ccccc3)OCC2O1 (stereo not drawn)")
"> 100 µM (inactive)"
>>> value_measured("Cc1cccc2c(O)cc(=O)oc12")
"> 100 µM (inactive)"
>>> value_measured("COc1cc([C@@H]2c3cc4c(cc3[C@@H](c3c(O)cc(O)c5c3O[C@H](c3ccc(O)c(O)c3)[C@@H](O)C5)[C@H]3COC(=O)[C@H]23)OCO4)cc(OC)c1O")
"58.9 µM (inactive)"
>>> value_measured("O=C1CC(CC(OCc2ccccc2)C(COCc2ccccc2)OCc2ccccc2)CC(=O)N1 (stereo not drawn)")
"50.6 µM (inactive)"
>>> value_measured("CS[C@]12[C@@H]3C(=O)N(C)C(=O)[C@@H]3[C@](C)(C(=O)N1C)C(=O)N2c1ccccc1")
"> 100 µM (inactive)"
>>> value_measured("CCCCCCCCCCCOCCC1C(C(C)OCCN2CCCC2)OC2OC(C)(C)OC21 (stereo not drawn)")
"1.78 µM (inactive)"
>>> value_measured("C=C(C)C1C/C=C(/C)CCCC2(CCC3=C(CC(C(=C)C)C/C=C(/C)CCC3)O2)C(=O)C1 (stereo not drawn)")
"> 100 µM (inactive)"
>>> value_measured("COc1ccc(C(CC(=O)c2ccc(O)cc2)C(C(=O)c2ccc(O)cc2)C(c2ccc(OC)cc2)C2C(=O)NC(=S)NC2=O)cc1 (stereo not drawn)")
"23.1 µM (inactive)"
>>> value_measured("CCC(C)C(NC(=O)C1CCCN1)C(=O)NC(C(=O)NCC(=O)NC(CC(N)=O)C(=O)NC(CC(C)C)C(=O)NC(CC(C)C)C(=O)NC(CCCCN)C(N)=O)C(C)C (stereo not drawn) (H-PIVGNLLK-NH2; configuration not given here)")
"> 75 µM (inactive)"

###

Tested on: NCI-H23
Assay: NCI tumour cell line growth inhibition, 48 h
Active and inactive are the calls of the source. No stated cut-off is given here; in the data, active = GI50 up to about 1.1 µM and inactive = higher. Where a SMILES comes first, the peptide text is derived from it. [ ]: non-standard residue; d: D form. The star is where a group is joined. Phe(4-NO2) = N[CH](Cc1ccc([N+](=O)[O-])cc1)C(=O)O; Cbz = O=C(OCc1ccccc1)*
Possible outcomes: active, inactive

>>> group_label("Cc1nnc(Nc2ccc(Cl)cc2)o1")
"inactive"
>>> group_label("ClCCCSSCCCCl")
"inactive"
>>> group_label("COc1cc2ccc(CC(N)=O)cc2cc1OC")
"inactive"
>>> group_label("CCCCCCCCCCCOCCC1C(C(C)OCCN2CCCC2)OC2OC(C)(C)OC21 (configuration not stated)")
"inactive"
>>> group_label("CCOC1OC(COC(=O)C(C)(C)C)C(O)CC1n1cc(C)c(=O)[nH]c1=O (configuration not stated)")
"inactive"
>>> group_label("O=c1oc2cc(O)ccc2c(O)c1C(c1ccccc1F)c1c(O)c2ccc(O)cc2oc1=O")
"inactive"
>>> group_label("NNC(=O)/C(=C/c1ccc(Cl)cc1Cl)NC(=O)c1ccccc1")
"inactive"
>>> group_label("CN(C)c1ccc(/C=C2\\C[N+](C)(C)C/C(=C\\c3ccc(N(C)C)cc3)C2=O)cc1")
"inactive"
>>> group_label("CCOC(=O)c1nc2ccccc2nc1Nc1ccc(OC)cc1")
"inactive"
>>> group_label("C=C(C)[C@@]1(O)CCCC[C@@H]1CC(Sc1ccccc1)Sc1ccccc1")
"inactive"
>>> group_label("COc1cc([C@@H]2c3cc4c(cc3[C@@H](Nc3ccc(Cl)cc3C(=O)c3ccccc3)[C@H]3COC(=O)[C@H]23)OCO4)cc(OC)c1OC")
"active"
>>> group_label("O=c1ccc2cc3ccc4cccc5ccc(c2o1)c3c45")
"inactive"
>>> group_label("COc1cc(C=O)cc(/C=N/N=C/c2ccccc2O)c1O")
"inactive"
>>> group_label("COC(=O)CSc1cc(Cl)c(C)cc1S(=O)(=O)Nc1n[nH]c(N)n1")
"inactive"
>>> group_label("COC(=O)C1CC2C=CC1N(C(=O)OCc1ccccc1)C2 (configuration not stated)")
"inactive"
>>> group_label("O=c1c2nc3ccccc3c(=O)n2ncn1-c1ccccc1Cl")
"inactive"
>>> group_label("O=C1CC(=O)NC(NN2C(=O)CSC2C(=O)c2ccco2)=N1 (configuration not stated)")
"inactive"
>>> group_label("N#C[C@H](C(=O)c1ccccc1F)c1nc2ccccc2[nH]1")
"inactive"
>>> group_label("CCOC(=O)CCC(NC(=O)OCc1ccccc1)C(=O)NC(CCC(=O)OCC)C(=O)NC(Cc1ccc([N+](=O)[O-])cc1)C(=O)NC(CCC(=O)OCC)C(=O)NC(CCC(=O)OCC)C(=O)OCC (configuration not stated) (Cbz-E(OEt)E(OEt)[Phe(4-NO2)]E(OEt)E(OEt)-OEt; configuration not given here)")
"inactive"
>>> group_label("CCOC(=O)C#Cc1ccccc1")
"inactive"
>>> group_label("CN1N=C2c3ccccc3OC(c3ccccc3)[C@H]2C1c1ccccc1 (some centres not stated)")
"inactive"
>>> group_label("COc1cc2c[n+](C)c3c4ccccc4ccc3c2cc1OC.COc1cc2cnc3c4ccccc4ccc3c2cc1OC")
"inactive"
>>> group_label("[N-]=[N+]=Nc1c(Cc2ccccc2)c(=O)oc2ccccc12")
"inactive"
>>> group_label("CSCSCC(CO)NC(=O)/C=C/c1c(C)nc(O)nc1O (configuration not stated)")
"inactive"
>>> group_label("COc1cc(C2C(=O)C(Cl)N2Nc2nc(C)cc(O)n2)cc(OC)c1OC (configuration not stated)")
"inactive"
>>> group_label("CCOC(=O)c1c(C)[n+]([O-])c2cc(Cl)c(Cl)cc2[n+]1[O-]")
"inactive"
>>> group_label("CC1=NN(c2nc(N)nc(-c3cc4ccccc4oc3=N)n2)C(C)(C)C1")
"inactive"
>>> group_label("O=C1C=C(c2c(O)ccc3ccccc23)c2cc(O)ccc2C1=O")
"inactive"
>>> group_label("CCOC(=O)C1=C(C)N(c2ccc(Cl)cc2)C2(O)C=CC(=O)C3C(=O)N(c4ccccc4)C(=O)C132 (configuration not stated)")
"inactive"
>>> group_label("Cc1cn(C2CC(n3cc(Cn4cc(F)c(=O)[nH]c4=O)nn3)C(CO)O2)c(=O)[nH]c1=O (configuration not stated)")
"inactive"
>>> group_label("CN(C)CCCN1CCC2(CCC(C(C)(C)C)CC2)CC1")
"inactive"
>>> group_label("O=c1n(N=[S+]([O-])(c2ccccc2)c2ccccc2)c(=O)n2n1C1C=CC2CC1")
"inactive"
>>> group_label("C/C(=N\\NC(=S)N1CCCC1)c1nc2cccnc2[nH]1")
"active"
>>> group_label("C=CCN(N=O)C(=O)NCCCC(NC(C)=O)C(=O)NCc1ccccc1 (configuration not stated)")
"inactive"
>>> group_label("N/C(=N\\O)N/N=C/c1ccc2c(c1)OCO2")
"inactive"
>>> group_label("O=C1OCC2=C1C(c1ccc3c(c1)OCO3)c1cc3c(cc1O2)OCO3 (configuration not stated)")
"inactive"
>>> group_label("COC(=O)C(Cc1ccccc1)NP(=O)(O)OCC1OC(n2ccc(N)nc2=O)C(O)C1O (configuration not stated)")
"inactive"
>>> group_label("Nc1ccc(-c2nc3ccc(F)cc3s2)cc1Cl")
"inactive"
>>> group_label("O=C(O)c1ccc(NCc2nc3cc4ccccc4cc3[nH]2)cc1")
"inactive"
>>> group_label("C=C(C)C1CC=C(C)C(O)([C@@]2(O)C[C@H](C(=C)C)CC=C2C)C1 (some centres not stated)")
"inactive"
>>> group_label("COc1cc(CCC(=O)NS(=O)(=O)c2ccccc2)cc(OC)c1OC")
"inactive"
>>> group_label("COc1ccc(OC)c2c(=O)cc(-c3ccccc3)[nH]c12")
"inactive"
